targetDesc: Mu-type opioid receptor (Homo sapiens, UniProt P35372)
Sequence (P35372 whole entry): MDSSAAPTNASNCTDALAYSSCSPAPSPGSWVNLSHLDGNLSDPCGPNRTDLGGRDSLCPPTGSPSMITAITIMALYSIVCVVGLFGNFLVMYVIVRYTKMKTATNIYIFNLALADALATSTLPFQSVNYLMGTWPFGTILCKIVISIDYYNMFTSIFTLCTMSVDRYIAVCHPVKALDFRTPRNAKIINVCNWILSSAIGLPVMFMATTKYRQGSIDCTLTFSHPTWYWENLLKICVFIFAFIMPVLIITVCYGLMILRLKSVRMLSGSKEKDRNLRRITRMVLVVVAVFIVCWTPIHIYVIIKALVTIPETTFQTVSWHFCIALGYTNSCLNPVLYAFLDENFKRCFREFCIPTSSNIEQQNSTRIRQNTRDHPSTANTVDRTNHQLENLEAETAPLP
protocolDescription: Antagonist activity at human mu opioid receptor expressed in CHO cells assessed as inhibition of DAMGO-induced […]GTPgammaS binding after 60 mins by scintillation counting relative to control
Format: functional, cell-based
measurementName: Imax

## Input Any idea what Imax was measured for O=[N+]([O-])c1cccc(CNc2ccc3c(c2)[C@@]24CCCC[C@H]2[C@@H](C3)N(CC2CCC2)CC4)c1 ?
## Output 49%

## Input Any idea what Imax was measured for Oc1cccc(CNc2ccc3c(c2)[C@@]24CCCC[C@H]2[C@@H](C3)N(CC2CCC2)CC4)c1 ?
## Output 74%

## Input Any idea what Imax was measured for Oc1cccc(CNc2ccc3c(c2)[C@@]24CCCC[C@H]2[C@@H](C3)N(CC2CC2)CC4)c1 ?
## Output 79%

## Input Any idea what Imax was measured for COc1cccc(CNc2ccc3c(c2)[C@@]24CCCC[C@H]2[C@@H](C3)N(CC2CC2)CC4)c1 ?
## Output 77%

## Input Any idea what Imax was measured for Oc1ccccc1CNc1ccc2c(c1)[C@@]13CCCC[C@H]1[C@@H](C2)N(CC1CC1)CC3 ?
## Output 47%

## Input Any idea what Imax was measured for c1cc2c(cc1CNc1ccc3c(c1)[C@@]14CCCC[C@H]1[C@@H](C3)N(CC1CCC1)CC4)OCO2 ?
## Output 60%

## Input Any idea what Imax was measured for COc1ccc(CNc2ccc3c(c2)[C@@]24CCCC[C@H]2[C@@H](C3)N(CC2CCC2)CC4)cc1 ?
## Output 55%

----------
targetDesc: Mu-type opioid receptor (Homo sapiens, UniProt P35372)
protocolDescription: Agonist activity at human mu opioid receptor expressed in CHO cells assessed as stimulation of […]GTPgammaS binding after 60 mins by scintillation counting
measurementName: pEC50
As a rule, pEC50 stands for the negative log10 of the concentration, concentration in M.

## Input Any idea what pEC50 was measured for COc1cccc(CNc2ccc3c(c2)[C@@]24CCCC[C@H]2[C@@H](C3)N(CC2CCC2)CC4)c1 ?
## Output 8.42

## Input Any idea what pEC50 was measured for COc1ccc(CNc2ccc3c(c2)[C@@]24CCCC[C@H]2[C@@H](C3)N(CC2CCC2)CC4)cc1 ?
## Output 8.11

## Input Any idea what pEC50 was measured for Oc1ccc(CNc2ccc3c(c2)[C@@]24CCCC[C@H]2[C@@H](C3)N(CC2CCC2)CC4)cc1 ?
## Output 8.44

## Input Any idea what pEC50 was measured for O=[N+]([O-])c1cccc(CNc2ccc3c(c2)[C@@]24CCCC[C@H]2[C@@H](C3)N(CC2CCC2)CC4)c1 ?
## Output 8.96

## Input Any idea what pEC50 was measured for c1cc2c(cc1CNc1ccc3c(c1)[C@@]14CCCC[C@H]1[C@@H](C3)N(CC1CCC1)CC4)OCO2 ?
## Output 8.44

## Input Any idea what pEC50 was measured for COc1ccc(CNc2ccc3c(c2)[C@@]24CCCC[C@H]2[C@@H](C3)N(CC2CC2)CC4)cc1 ?
## Output 8.17

## Input Any idea what pEC50 was measured for Oc1ccccc1CNc1ccc2c(c1)[C@@]13CCCC[C@H]1[C@@H](C2)N(CC1CCC1)CC3 ?
## Output 7.42

## Input Any idea what pEC50 was measured for Oc1ccccc1CNc1ccc2c(c1)[C@@]13CCCC[C@H]1[C@@H](C2)N(CC1CC1)CC3 ?
## Output 8.06

## Input Any idea what pEC50 was measured for CN1CC[C@]23CCCC[C@H]2[C@H]1Cc1ccc(NCc2cccc(O)c2)cc13 ?
## Output 8.19

## Input Any idea what pEC50 was measured for CN1CC[C@]23c4c5ccc(NCc6cccc(O)c6)c4O[C@H]2[C@@H](O)C=C[C@H]3[C@H]1C5 ?
## Output 6.26
